Test system: hN + hpA co-culture (H1 iNGN2 human neurons + human primary astrocytes)
Assay: presynaptic density (SYNAPSIN1 puncta per MAP2 neurite area), Z-score vs DMSO controls; higher = more presynaptic puncta (synapse-promoting)
Details: 3 µM; 72 h
Use 0.2 as the dividing line for presynaptic density (Z-score), with the line itself on the t side and lower values as f.

CCc1cncnc1N1CCN(Cc2nc3ccc(C(F)(F)F)cc3[nH]2)CC1	f

Read the next record carefully.
Given CCNC(=O)c1noc(-c2cc(C(C)C)c(O)cc2O)c1-c1ccc(CN2CCOCC2)cc1 , state whether its presynaptic density (Z-score) is at least 0.2.
t

###

System: hN + hpA co-culture (H1 iNGN2 human neurons + human primary astrocytes)
Test: presynaptic density (SYNAPSIN1 puncta per MAP2 neurite area), Z-score vs DMSO controls; higher = more presynaptic puncta (synapse-promoting)
Conditions: 3 µM; 72 h
Use 0.2 as the dividing line for presynaptic density (Z-score), with the line itself on the Satisfied side and lower values as Not satisfied.

Sample answers from the record:
CC(=O)O[C@]1(C(C)=O)CC[C@H]2[C@@H]3C=C(Cl)C4=CC(=O)[C@@H]5C[C@@H]5[C@]4(C)[C@H]3CC[C@@]21C [Cyproterone acetate]	Not satisfied
O=C(O)CCc1ccc(NCc2cccc(Oc3ccccc3)c2)cc1 [4-[[(3-Phenoxyphenyl)methyl]amino]benzenepropanoic acid]	Not satisfied
C[C@H](CS)C(=O)N1CCC[C@H]1C(=O)O [Captopril]	Not satisfied
COC1CC2CCC(C)C(O)(O2)C(=O)C(=O)N2CCCCC2C(=O)OC(C(C)CC2CCC(OP(C)(C)=O)C(OC)C2)CC(=O)C(C)C=C(C)C(O)C(OC)C(=O)C(C)CC(C)C=CC=CC=C1C (stereo not drawn) [Ridaforolimus (Deforolimus]	Satisfied
CN(C)CCCCC(=O)Nc1ccc(NC(=S)NC(=O)c2ccc(C(C)(C)C)cc2)cc1 [Tenovin-6]	Not satisfied

Given Cc1cc(C(N)=O)ccc1-n1c(CCC(=O)O)ccc1-c1ccc(-n2ccnc2)cc1 , state whether its presynaptic density (Z-score) is at least 0.2.
Not satisfied

###

Tested on: hN + hpA co-culture (H1 iNGN2 human neurons + human primary astrocytes);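 also: immunostained co-cultures imaged by high-content microscopy, Z-score per plate against mean and SD of 0.1% DMSO wells, compounds added on differentiation day 18, analysed day 21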
Experiment: presynaptic density (SYNAPSIN1 puncta per MAP2 neurite area), Z-score vs DMSO controls; higher = more presynaptic puncta (synapse-promoting)
Settings: 3 µM; 72 h
METRIC: presynaptic density (Z-score)
One number for each entry.

For each of the molecules below, state presynaptic density (Z-score).
1. CC(C=CC(=O)NO)=CC(C)C(=O)c1ccc(N(C)C)cc1 (stereo not drawn) [Trichostatin A (TSA)]
2. CCC(CC)CC1(C(=O)Nc2ccccc2SC(=O)C(C)C)CCCCC1 [Dalcetrapib (JTT-705]
3. NC(=O)c1ccc(-c2nc(-c3ccc4c(c3)OCO4)c(-c3ccccn3)[nH]2)cc1
4. CS(=O)(=O)c1ccc(-c2cnc(N)c(C(=O)Nc3ccccc3)n2)cc1
5. CCOc1ccc(Cc2cc([C@@H]3O[C@H](CO)[C@@H](O)[C@H](O)[C@H]3O)ccc2Cl)cc1 [Dapagliflozin]
6. OC(CC1c2ccccc2-c2cncn21)C1CCCCC1 (stereo not drawn)

[11.2, -0.463, 0.232, -0.463, 0.756, 0.156]

For each of the molecules below, state presynaptic density (Z-score).
1. Cc1[nH]c2ccccc2c1CCNCc1ccc(/C=C/C(=O)NO)cc1 [Panobinostat (LBH589)]
2. N#C[C@@H]1CCCN1C(=O)CNC12CC3CC(CC(O)(C3)C1)C2 [Vildagliptin (LAF-237)]

4.81
0.854
